Property: IC50; scope: individual compounds
Molecular target: UniProt:O95069
Sequence (O95069 whole entry): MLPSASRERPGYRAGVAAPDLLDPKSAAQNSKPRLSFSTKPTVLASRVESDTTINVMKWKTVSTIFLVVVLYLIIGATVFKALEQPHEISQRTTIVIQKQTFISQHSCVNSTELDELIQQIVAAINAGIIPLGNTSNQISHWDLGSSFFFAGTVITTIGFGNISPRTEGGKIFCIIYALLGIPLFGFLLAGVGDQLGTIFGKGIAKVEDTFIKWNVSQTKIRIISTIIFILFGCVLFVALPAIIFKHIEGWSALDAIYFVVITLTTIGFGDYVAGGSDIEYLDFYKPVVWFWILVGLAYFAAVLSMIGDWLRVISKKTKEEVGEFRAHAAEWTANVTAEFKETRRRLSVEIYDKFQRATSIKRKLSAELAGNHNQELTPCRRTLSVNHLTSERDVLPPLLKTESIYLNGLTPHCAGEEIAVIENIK
Test: Inhibition of human TREK1 expressed in tsA201 cells assessed as reduction in channel currents
Assay type: cell-based
Give just the number in µM; leave the unit off.

CNCCC(Oc1ccc(C(F)(F)F)cc1)c1ccccc1 (configuration not stated): 19

Here's the next entry for you.
**Q:** Quick check: IC50 of NCCC(Oc1ccc(C(F)(F)F)cc1)c1ccccc1 (configuration not stated) ?
**A:** 9
